Assay: ATG_BRE_CIS: Attagene CIS-FACTORIAL HepG2 Assay for human Bone Morphogenetic Protein (BMP) Response Element (BRE) (AID 2282933)
Conditions: HepG2 BMP response element reporter, Attagene transcription factor profiling; actives raise or lower the signal
Experimental: ATG_CIS is a cell-based, multiplexed-readout assay that uses HepG2, a human liver cell line, with measurements taken at 24 hours after chemical dosing in a 24-well plate.ATG_BRE_CIS is one of 52 assay component(s) measured or calculated from the ATG_CIS assay. […] This assay endpoint, ATG_BRE_CIS, was analyzed with bidirectional fitting relative to DMSO as the negative control and baseline of activity. […]
Active and inactive are the calls of the source. How the source made its calls: active means hit-call score of the fitted dose curve at least 0.9, where 1 is the maximum; inactive means score below 0.9.
Allowed answers: active, inactive

*Q* Tell me the recorded outcome of this test for `Cc1ccccc1Cl` .
*A* inactive

*Q* Likewise for `COC(=O)c1ccc(O)cc1` ?
*A* inactive

*Q* Can you handle `CC1(C)NC(=O)NC1=O` next?
*A* inactive

*Q* Query `CCCCCCCCCCCCCCCC` next
*A* inactive

*Q* Similarly, `COc1ccc(S(=O)(=O)N2C(=O)[C@@](c3ccccc3OC)(N3C[C@H](O)C[C@H]3C(=O)N(C)C)c3cc(Cl)ccc32)c(OC)c1` ?
*A* active

*Q* Consider next the molecule `CNC(=O)[C@H]1O[C@@H](n2cnc3c(NCc4cc(Cl)ccc4OCc4cc(C)no4)ncnc32)[C@H](O)[C@@H]1N` in the same way.
*A* inactive

*Q* Moving on to `Nc1ccc2c(c1)C(=O)c1ccccc1C2=O`
*A* inactive

*Q* // query: `O=C(O)Cc1ccccc1Nc1c(Cl)cccc1Cl`
*A* inactive

*Q* Quick one: `Nc1nc(N)c2nc(CNc3ccc(C(=O)N[C@@H](CCC(=O)O)C(=O)O)cc3)cnc2n1`
*A* inactive

*Q* Now try `CNCc1cc(F)ccc1Oc1ccc(Cl)c(Cl)c1` .
*A* inactive

*Q* Moving on to the next molecule: `CCCCCCCCCCCCCO`
*A* active

*Q* Also `CCCc1cc(=O)[nH]c(=S)[nH]1` ?
*A* inactive

====

Read-out: Fatty acid synthase (Homo sapiens)
Experiment: LTEA_HepaRG_FASN: Life Technologies and Expression Analysis (LTEA) Assay for Fatty Acid Synthase (FASN) using HepaRG (AID 2283448)
Conditions: mRNA level, 48 h; actives raise or lower the signal
Calls of active or inactive are those of the source. How the source made its calls: active means hit-call score of the fitted dose curve at least 0.9, where 1 is the maximum; inactive means score below 0.9.
Please reply with one of these outcomes: active, inactive

*Q* What call does the record list for `CCCCCCCCCCCCCO` ?
*A* inactive

*Q* Quick one: `Cc1nc(C)nc(N2C[C@@H](C)N(c3ccnc([C@@H](C)O)n3)[C@@H](C)C2)n1`
*A* inactive

*Q* Another compound: `CC1=C(/C=C/C(C)=C/C=C/C(C)=C/CO)C(C)(C)CCC1`
*A* inactive

*Q* Same question for `O=[N+]([O-])C(CO)(CO)CO` please.
*A* inactive

*Q* // next record `C[C@]12C=CC(=O)C=C1CC[C@@H]1[C@@H]2C(=O)C[C@@]2(C)[C@H]1CC[C@]2(O)C(=O)CO`
*A* inactive

*Q* What do we get for `CCc1c(C(=O)NN2CCCCC2)nn(-c2ccc(Cl)cc2Cl)c1-c1ccc(Br)cc1` ?
*A* active

*Q* // same read-out, input: `CC=Cc1ccc(O)c(OC)c1`
*A* inactive

====

Assay: CCTE_Deisenroth_5AR_NBTE_donor: CCTE's 5alpha-reductase NanoBRET Target Engagement Assay […], Deisenroth Lab (AID 2284319)
Settings: actives raise or lower the signal
Calls of active or inactive are those of the source. The calls were made as follows: active = hit-call score of the fitted dose curve at least 0.9, where 1 is the maximum; inactive = score below 0.9.
Measurement type: AC50

{"Smiles repr": "COc1ccc(C)cc1N", "Value": "inactive"}
{"Smiles repr": "COc1cc(S(=O)(=O)O)c(C)cc1N=Nc1c(O)ccc2cc(S(=O)(=O)O)ccc12", "Value": "24.8 µM (active)"}
{"Smiles repr": "C1CCC(SSC2CCCCC2)CC1", "Value": "inactive"}
{"Smiles repr": "CCCCCCCCCCC", "Value": "inactive"}

====

Read-out: Tumor necrosis factor (Homo sapiens) (UniProt P01375)
Sequence (P01375 whole entry, looked up): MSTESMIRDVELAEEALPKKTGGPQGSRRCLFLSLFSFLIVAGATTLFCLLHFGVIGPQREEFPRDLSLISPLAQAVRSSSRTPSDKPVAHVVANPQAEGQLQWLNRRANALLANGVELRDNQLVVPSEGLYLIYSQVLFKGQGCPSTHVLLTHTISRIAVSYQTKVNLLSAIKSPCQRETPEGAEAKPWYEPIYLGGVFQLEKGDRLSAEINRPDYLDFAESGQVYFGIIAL
Experiment: BSK_LPS_TNFa: BioMAP Diversity Plus: LPS Assay for Tumour Necrosis Factor alpha (TNFa) Biomarker Activity (AID 2283085)
Settings: primary human HUVEC with PBMC; actives raise or lower the signal
Active and inactive are the calls of the source. Rule for the calls: active = hit-call score of the fitted dose curve at least 0.9, where 1 is the maximum; inactive = score below 0.9.
Pick from active, inactive when you respond.

*Q* Identify the outcome logged in this assay for the compound shown: `Cc1cccc(Nc2cc(Cl)nc(SCC(=O)O)n2)c1C`
*A* inactive

*Q* Same question, `O=C(O)CCCCC(=O)O` this time
*A* inactive

*Q* Please answer likewise for `NS(=O)(=O)c1cc2c(cc1Cl)NCNS2(=O)=O`
*A* inactive

*Q* Try `CCCCCCCCCCCCCCCCCC(=O)O` next.
*A* active

*Q* Okay, and `CCOC(=O)C(C)(C)Oc1ccc(Cl)cc1` ?
*A* inactive

*Q* Quick one: `C[Si]1(C)O[Si](C)(C)O[Si](C)(C)O[Si](C)(C)O1`
*A* inactive

*Q* And what about the compound `CCCCCCCCCCCCCO` ?
*A* inactive

*Q* `O=c1c(O)c(-c2ccc(O)c(O)c2)oc2cc(O)cc(O)c12` , same question.
*A* inactive

*Q* One more compound: `CC(C)c1ccc(C(=O)N=C(N)N)cc1S(C)(=O)=O`
*A* inactive

*Q* Check `Cc1cccc(C)c1O` too.
*A* inactive

*Q* And the next one, `COc1cc(-c2nc(NC(=O)c3cc4cc(C)cc(C)c4n3CC(=O)O)sc2CCC2CCCCC2)c(OC)cc1Cl` ?
*A* active

*Q* Same again, this time with `CNCc1cc(F)ccc1Oc1ccc(Cl)c(Cl)c1`
*A* active

*Q* Further, for `COC(=O)c1ccc(O)cc1` ?
*A* inactive

*Q* Next entry: `Cc1ccc(N(C)C)cc1`
*A* inactive

*Q* Now try `Cc1cc(NC(=O)C(=O)O)cc(C)c1Oc1ccc(O)c2c1CCC2` .
*A* active

*Q* Queued: `Oc1ccc2c(c1)OC[C@@H](N1CCC(O)(c3ccc(F)cc3)CC1)[C@H]2O`
*A* inactive

*Q* Now give it for `OC[C@@H](O)[C@@H](O)[C@H](O)[C@H](O)CO` too.
*A* inactive

*Q* Please do the same for `NCC1(Cc2noc(=O)[nH]2)CCCCC1` as well.
*A* inactive

*Q* Another compound to check: `CC1(C)NC(=O)NC1=O`
*A* inactive

*Q* Repeat with `COc1cc(S(=O)(=O)O)c(C)cc1N=Nc1c(O)ccc2cc(S(=O)(=O)O)ccc12`
*A* inactive

*Q* Another: `O=C(O)Cc1ccccc1Nc1c(Cl)cccc1Cl`
*A* active

*Q* And `Cc1ccc(Cl)cc1` ?
*A* inactive

*Q* Cool, now `CCCCCCOCCO`
*A* inactive

*Q* Queued: `CC(=O)OCCOCCOCCOC(C)=O`
*A* inactive

*Q* // repeat for `CCCCCCCCCCCC(=O)OC` and report
*A* inactive

*Q* Would you kindly repeat that for `CCOC(=O)CCC(=O)OCC` ?
*A* inactive

*Q* Would you mind doing `FC(F)(F)C(F)(F)C(F)(F)C(F)(F)C(F)(F)C(F)(F)CCI` as well?
*A* inactive

*Q* Can you check `Clc1cc(Cl)c(Cl)cc1Cl` next?
*A* inactive

====

Read-out: Bcl-2 (BID) gene, BID (gene 637)
Experiment: LTEA_HepaRG_BID: Life Technologies and Expression Analysis (LTEA) Assay for Bcl-2 (BID) gene using HepaRG (AID 2283476)
Settings: mRNA level, 48 h; actives raise or lower the signal
Activity calls are given as the source filed them. How the source made its calls: active means hit-call score of the fitted dose curve at least 0.9, where 1 is the maximum; inactive means score below 0.9.
Give your call using only these classes: t for active, f for inactive

*Q* Per the records of this test, what outcome belongs to `CCNc1cccc(C)c1` ?
*A* f

*Q* Entry `Cc1ccc(N(C)C)cc1` please
*A* f

*Q* What do you have for `CNC(=O)[C@H]1O[C@@H](n2cnc3c(NCc4cc(Cl)ccc4OCc4cc(C)no4)ncnc32)[C@H](O)[C@@H]1N` ?
*A* f

*Q* `Cc1ccc(C(C)C)c(O)c1` ?
*A* f

*Q* Lookup `COc1ccc2c(c1)c(CC(=O)O)c(C)n2C(=O)c1ccc(Cl)cc1`
*A* f

*Q* Repeat with `C1CCC(SSC2CCCCC2)CC1`
*A* f

*Q* And the next one, `Cc1ccc(Cl)cc1` ?
*A* f

*Q* Same thing, different compound: `Cc1oc(-c2ccccc2)nc1CCOc1cccc2c1ccn2CCC(=O)O`
*A* f

*Q* Same read-out for `CC(=O)Oc1ccccc1C(=O)O` ?
*A* f

*Q* Also, `CCCCc1ccc2c(n1)[C@@H](c1ccc(OC)cc1C[C@H](C)C(=O)O)[C@H](C(=O)O)[C@H]2c1ccc2c(c1)OCO2` please.
*A* f

*Q* Further, for `Cc1cc(NC(=O)C(=O)O)cc(C)c1Oc1ccc(O)c2c1CCC2` ?
*A* f

*Q* // next record `CCOc1ccc2c(c1)C(C)=CC(C)(C)N2`
*A* f

*Q* Likewise for `OC[C@@H](O)[C@@H](O)[C@H](O)[C@H](O)CO` ?
*A* f

*Q* Follow-up entry: `CN[C@H]1CC[C@@H](c2ccc(Cl)c(Cl)c2)c2ccc(S(N)(=O)=O)cc21`
*A* f

*Q* Also check `Cc1ccc(C)c(O)c1C`
*A* f

*Q* And for `O=[N+]([O-])C(CO)(CO)CO` ?
*A* f

*Q* Can you check `CC(C)c1ccc(C(=O)N=C(N)N)cc1S(C)(=O)=O` next?
*A* t

*Q* Next entry: `NCCO`
*A* f

*Q* Now give it for `CCCCCCOCCO` too.
*A* f

*Q* # repeat for `Oc1ccc2c(c1)OC[C@@H](N1CCC(O)(c3ccc(F)cc3)CC1)[C@H]2O`
*A* f

*Q* Now consider `CCc1c(C(=O)NN2CCCCC2)nn(-c2ccc(Cl)cc2Cl)c1-c1ccc(Br)cc1` .
*A* f

*Q* Now try `COc1ccc(S(=O)(=O)N2C(=O)[C@@](c3ccccc3OC)(N3C[C@H](O)C[C@H]3C(=O)N(C)C)c3cc(Cl)ccc32)c(OC)c1` .
*A* f

*Q* Next up: `CCOC(=O)CCC(=O)OCC`
*A* f

*Q* Now give it for `O=C(N[C@@H](Cc1ccccc1)[C@@H](O)C(=O)N1C[C@@H](O)[C@@H](O)C1)c1cc2cc(Cl)ccc2[nH]1` too.
*A* f
